Attribution: ChEMBL document CHEMBL1138555

# Tested on: NCI-H322M
# assay.info: Growth inhibition of human NCI-H322M cells after 48 hrs by sulforhodamine B assay
# Format: functional
GI50 strictly under 20 µM means met; at 20 µM or over means not met.

N#CC(C#N)=CN1CCN(C(=O)c2ccco2)C1=S : met
COc1cc(C(=O)N2CCN(C(=O)c3cc(OC)c(OC)c(OC)c3)C2=S)cc(OC)c1OC : met
N#CC(C#N)=CN1CCN(C(=O)c2ccccc2)C1=S : not met
N#C/C(=C\N1CCN(C(=O)c2ccco2)C1=S)C(=O)c1ccccc1 : not met
O=C(c1ccco1)N1CCN(C(=O)c2ccco2)C1=S : met

Challenge: Find out if reported GI50 for O=C(C(=CN1CCN(C(=O)c2ccco2)C1=S)C(=O)c1ccccc1)c1ccccc1 is less than 20 µM
Response given: met

Challenge: Find out if reported GI50 for CC(=O)C(=CN1CCN(C(=O)c2ccco2)C1=S)C(C)=O is less than 20 µM
Response given: met

Challenge: Find out if reported GI50 for O=C(c1cc(Cl)cc(Cl)c1)N1CCN(C(=O)c2cc(Cl)cc(Cl)c2)C1=S is less than 20 µM
Response given: met
